Overview of reported residual hCCL1 (100 nM) Gi2 response, protocol #3, mAb 5 µg/mL across a group of binders:
- Tested system: human CCR8 (human, UniProt P51685 1-355)
- Procedure details: cell-based or functional assay
Reply with just the number (in %).

Task: Output residual hCCL1 (100 nM) Gi2 response, protocol #3, mAb 5 µg/mL of anti-CCR8 mAb 1-6 (antibody, V domains shown, Murine hybridoma mAb) VH: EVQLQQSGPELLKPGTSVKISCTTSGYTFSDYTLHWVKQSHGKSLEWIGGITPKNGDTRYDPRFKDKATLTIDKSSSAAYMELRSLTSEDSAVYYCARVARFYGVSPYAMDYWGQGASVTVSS VL: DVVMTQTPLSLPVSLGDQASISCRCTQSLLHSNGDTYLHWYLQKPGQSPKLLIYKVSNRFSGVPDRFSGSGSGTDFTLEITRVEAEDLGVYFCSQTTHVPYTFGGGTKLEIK
Result: 47

Task: Output residual hCCL1 (100 nM) Gi2 response, protocol #3, mAb 5 µg/mL of anti-CCR8 mAb 1-2 (antibody, V domains shown, Murine hybridoma mAb) VH: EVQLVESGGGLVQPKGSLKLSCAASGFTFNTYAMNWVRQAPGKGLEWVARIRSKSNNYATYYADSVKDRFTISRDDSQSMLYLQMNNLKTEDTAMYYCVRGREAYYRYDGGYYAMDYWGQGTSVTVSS VL: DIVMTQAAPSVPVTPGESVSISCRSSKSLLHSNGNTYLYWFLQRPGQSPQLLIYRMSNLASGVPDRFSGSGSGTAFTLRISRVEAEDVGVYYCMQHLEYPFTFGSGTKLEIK
Result: 48

Task: Output residual hCCL1 (100 nM) Gi2 response, protocol #3, mAb 5 µg/mL of anti-CCR8 mAb 1-4 (antibody, V domains shown, Murine hybridoma mAb) VH: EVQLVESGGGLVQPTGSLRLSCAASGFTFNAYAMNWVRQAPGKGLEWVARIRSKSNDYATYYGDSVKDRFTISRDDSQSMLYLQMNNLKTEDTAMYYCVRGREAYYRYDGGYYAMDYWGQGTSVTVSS VL: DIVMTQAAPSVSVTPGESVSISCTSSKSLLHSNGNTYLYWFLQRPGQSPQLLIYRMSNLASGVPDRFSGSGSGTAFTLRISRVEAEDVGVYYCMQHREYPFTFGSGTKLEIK
Result: 22
